Attribute: OD
- TESTED_SYSTEM: T1, Secreted Protein, Acidic, Rich in Cysteines (SPARC) (UniProt P09486 18-303)
- T1 construct: also called osteonectin; SPARC protein
- T1 sequence (looked up): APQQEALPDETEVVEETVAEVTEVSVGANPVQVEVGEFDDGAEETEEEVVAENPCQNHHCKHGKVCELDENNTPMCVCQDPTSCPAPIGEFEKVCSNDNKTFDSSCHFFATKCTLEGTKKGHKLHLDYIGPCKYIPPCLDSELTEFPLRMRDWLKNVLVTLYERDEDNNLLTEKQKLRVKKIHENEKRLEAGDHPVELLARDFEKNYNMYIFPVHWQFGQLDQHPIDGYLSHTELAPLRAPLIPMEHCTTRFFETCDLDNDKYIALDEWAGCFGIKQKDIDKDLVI
- EXPERIMENT_NOTES: phage ELISA on SPARC-coated wells; OD column 3 of 3

BINDER	OD
TQWHDDSTFYWL (also called clone 186)	0.882
IPFATAAYNAPG (also called clone 191)	0.58
VGNMPFVHPHQW (also called clone 192)	0.539
SAHTLAAWFAKP (also called clone 204)	0.779
AAAPLNLSMTFP (also called clone 182)	0.643
VTPLLKFRALSS (12-mer from the Ph.D.-12 phage library; The peptide was cloned into pFUSE-hIgG1-Fc2 and expressed as the PD 21-Fc fusion; also called peptide 21; PD 21-Fc) [PD 21]	0.438
HYFSRTQTLSTL (also called clone 194)	0.521
LSTHKLFHSHSQ (also called clone 180)	1.14

Where do the numbers come from? From patent US20120014954A1.
